Target: Cp-NanI (Clostridium perfringens, UniProt A0A0H2YQR1)
Sequence (A0A0H2YQR1 243-694 limits assumed): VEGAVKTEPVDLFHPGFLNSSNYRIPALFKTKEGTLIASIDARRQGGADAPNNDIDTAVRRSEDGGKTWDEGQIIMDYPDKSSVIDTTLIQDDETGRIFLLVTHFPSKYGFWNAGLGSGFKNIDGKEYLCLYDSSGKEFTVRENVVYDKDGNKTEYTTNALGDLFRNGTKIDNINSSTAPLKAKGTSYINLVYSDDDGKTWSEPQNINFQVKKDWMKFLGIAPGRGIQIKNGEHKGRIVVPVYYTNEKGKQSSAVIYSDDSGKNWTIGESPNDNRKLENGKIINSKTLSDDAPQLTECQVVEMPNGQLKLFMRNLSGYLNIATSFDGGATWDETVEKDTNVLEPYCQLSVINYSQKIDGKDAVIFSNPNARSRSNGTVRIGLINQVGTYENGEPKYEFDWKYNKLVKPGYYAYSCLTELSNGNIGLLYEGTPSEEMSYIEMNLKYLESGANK
Test: biochemical
Conditions: K i
Reported Endpoint: Ki (nM)
Use nM as the unit, but write only the number.

What the record says about CC(C)=CCC/C(C)=C/Cc1c(O)cc2c(c1O)C(=O)CC(c1ccc(O)c(O)c1)O2 (stereo not shown) [Diplacone] : Ki is 40
